Each record here notes measured pEC50.
Biological target: Neurotensin receptor type 1 (Homo sapiens, UniProt P30989)
Sequence (P30989 whole entry): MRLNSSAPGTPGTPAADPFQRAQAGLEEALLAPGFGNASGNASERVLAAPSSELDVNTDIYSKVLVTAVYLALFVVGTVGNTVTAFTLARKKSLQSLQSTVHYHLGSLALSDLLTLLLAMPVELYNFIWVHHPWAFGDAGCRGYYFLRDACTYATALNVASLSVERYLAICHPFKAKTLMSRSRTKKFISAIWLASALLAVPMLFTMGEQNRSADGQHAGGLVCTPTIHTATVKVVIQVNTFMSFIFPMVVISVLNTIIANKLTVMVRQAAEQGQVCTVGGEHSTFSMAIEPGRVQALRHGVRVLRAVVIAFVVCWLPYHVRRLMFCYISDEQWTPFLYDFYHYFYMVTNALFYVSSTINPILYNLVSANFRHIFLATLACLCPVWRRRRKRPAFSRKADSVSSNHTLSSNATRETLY
Test: Agonist activity at NTSR1 (unknown origin) expressed in CHO cells assessed as potentiation of NT(8-13) peptide-induced change in intracellular Ca2+ level preincubated for 45 mins by FLIPR assay
Format: functional, cell-based
Please report pEC50 as the negative decimal logarithm of the molar concentration, giving only the number.

{"compound-structure": "CC(C)C[C@H](NC(=O)Cn1ccc2ccccc21)C(=O)O", "pEC50": 5.18}

Memo: CC(C)C[C@H](NC(=O)Cn1ccc2cc(NS(=O)(=O)c3cccc4ccccc34)ccc21)C(=O)O , reported pEC50: 5.03

Value of measured pEC50 for the entry CC(C)C[C@H](NC(=O)Cn1ccc2ccc(-c3cnc4ccccc4c3)cc21)C(=O)O : 5.48

Briefly, pEC50 measured for O=C(Cn1ccc2cc(-c3cnc4ccccc4c3)ccc21)N[C@@H](Cc1ccccc1)C(=O)O : 5.36

Looking up CC(C)C[C@H](NC(=O)Cn1ccc2cc(-c3cncc4ccccc34)ccc21)C(=O)O , I see its pEC50 listed as 5.49

Data point: CC(C)C[C@H](NC(=O)Cn1ccc2cc(N(Cc3ccnc4ccccc34)Cc3ccnc4ccccc34)ccc21)C(=O)O ; pEC50 = 5.67

Value of pEC50 reported for the compound CC(C)C[C@H](NC(=O)Cn1ccc2cc(-c3cccc4ccccc34)ccc21)C(=O)O is 5.49

Note to self: pEC50 recorded for CC(C)C[C@H](NC(=O)Cn1ccc2cc(-c3ccccc3)ccc21)C(=O)O was 5.03

Reported pEC50 ( CC(C)C[C@H](NC(=O)Cn1ccc2ccc(-c3cccc4ccccc34)cc21)C(=O)O ) = 5.55

* * *

Target: Neurotensin receptor type 1 (Homo sapiens, UniProt P30989)
Test: Agonist activity at NTSR1 (unknown origin) expressed in CHO cells assessed as potentiation of NT(8-13) peptide-induced change in intracellular Ca2+ level preincubated for 45 mins by FLIPR assay
Threshold 9 µM. EC50 below it: t. EC50 at it or above: f.

{"compound-structure": "CC(C)C[C@H](NC(=O)Cn1ccc2ccc(-c3cncc4ccccc34)cc21)C(=O)O", "assigned-class": "t"}
{"compound-structure": "CC(C)C[C@H](NC(=O)Cn1ccc2cc(-c3cnc4ccccc4c3)ccc21)C(=O)O", "assigned-class": "t"}
{"compound-structure": "CC(C)C[C@H](NC(=O)Cn1ccc2cc(-c3cccnc3)ccc21)C(=O)O", "assigned-class": "f"}
{"compound-structure": "CC(C)C[C@H](NC(=O)Cn1ccc2cc(Nc3ccc4cnccc4c3)ccc21)C(=O)O", "assigned-class": "t"}
{"compound-structure": "C[C@H](NC(=O)Cn1ccc2cc(-c3cnc4ccccc4c3)ccc21)C(=O)O", "assigned-class": "f"}

Take the compound O=C(O)CNC(=O)Cn1ccc2cc(-c3cnc4ccccc4c3)ccc21 and say whether its EC50 is less than 9 µM.
f

Problem: For the compound CC(C)C[C@H](NC(=O)Cn1ccc2cc(-c3cnc4ccccc4c3)ccc21)c1nn[nH]n1 , is EC50 under 9 µM?
t

Threshold test, EC50 < 9 µM: CC(C)C[C@H](NC(=O)Cn1ccc2cc(Br)ccc21)C(=O)O
f

Given the entry CC(C)C[C@@H](NC(=O)Cn1ccc2cc(-c3cccc4ccccc34)ccc21)C(=O)O , would its reported EC50 be below 9 µM?
f

Identify whether the compound COC(=O)[C@H](CC(C)C)NC(=O)Cn1ccc2cc(-c3cnc4ccccc4c3)ccc21 records EC50 below 9 µM.
f

# check: EC50 < 9 µM for COC(=O)[C@@H](CC(C)C)NC(=O)Cn1ccc2cc(-c3cnc4ccccc4c3)ccc21
f

Threshold test, EC50 < 9 µM: CC(C)C[C@H](NC(=O)Cn1ccc2cc(N)ccc21)C(=O)O
f
